- assayed-system: T1, full-length human vimentin (residues Met1-Glu466) (human, UniProt P08670 1-466)
- T1 construct: vimentin, human, residues Met1-Glu466; Vector pET21a+; also called vimentin^FL; full-length vimentin
- T1 sequence (P08670 whole entry, the tested form may be a part): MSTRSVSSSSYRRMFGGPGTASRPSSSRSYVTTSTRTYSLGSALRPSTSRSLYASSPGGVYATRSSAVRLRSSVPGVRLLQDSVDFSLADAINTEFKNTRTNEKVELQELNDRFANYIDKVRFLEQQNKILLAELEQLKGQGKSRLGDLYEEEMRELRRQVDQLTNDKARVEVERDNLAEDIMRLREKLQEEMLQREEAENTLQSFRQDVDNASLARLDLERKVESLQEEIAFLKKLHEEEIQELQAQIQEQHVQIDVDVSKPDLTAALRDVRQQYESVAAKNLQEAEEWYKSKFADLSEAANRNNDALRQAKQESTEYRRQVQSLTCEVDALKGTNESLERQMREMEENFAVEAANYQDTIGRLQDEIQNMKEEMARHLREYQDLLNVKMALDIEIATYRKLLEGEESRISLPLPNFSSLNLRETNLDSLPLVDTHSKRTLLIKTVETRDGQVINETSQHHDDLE
- protocol-notes: NMR titration; unlabelled full-length vimentin (10, 50, 100, 200 μM) added to 100 μM 15N-labelled wild-type or mutant envoplakin PRD; 1H,15N HSQC peak intensities; 20 mM Tris-Cl, pH 7, 1 mM DTT, no salt, 298 K
- particulars: both partners purified
result-type: binding result

>>> measured("envoplakin PRD R1952A (domain or fragment, human, UniProt Q92817 1822-2014, looked up, envoplakin, human, plakin repeat domain, residues Asp1822-Ala2014, mutant R1952A; 15N-labelled for NMR; source: E. coli BL21(DE3), purified (HisTrap, TEV cleavage, S75 size exclusion)) DDSFPIAGIYDTTTDNKCSIKTAVAKNMLDPITGQKLLEAQAATGGIVDLLSRERYSVHKAMERGLIENTSTQRLLNAQKAFTGIEDPVTKKRLSVGEAVQKGWMPRESVLPHLQVQHLTGGLIDPKRTGAIPIQQALLSGMISEELAQLLQDESSYEKDLTDPISKERLSYKEAMGRCRKDPLSGLLLLPAA")
"binds"
>>> measured("envoplakin PRD R1990E (control mutation) (domain or fragment, human, UniProt Q92817 1822-2014, looked up, envoplakin, human, plakin repeat domain, residues Asp1822-Ala2014, mutant R1990E; 15N-labelled for NMR; source: E. coli BL21(DE3), purified (HisTrap, TEV cleavage, S75 size exclusion)) DDSFPIAGIYDTTTDNKCSIKTAVAKNMLDPITGQKLLEAQAATGGIVDLLSRERYSVHKAMERGLIENTSTQRLLNAQKAFTGIEDPVTKKRLSVGEAVQKGWMPRESVLPHLQVQHLTGGLIDPKRTGRIPIQQALLSGMISEELAQLLQDESSYEKDLTDPISKEELSYKEAMGRCRKDPLSGLLLLPAA")
"binds"
>>> measured("envoplakin PRD R1895E (domain or fragment, human, UniProt Q92817 1822-2014, looked up, envoplakin, human, plakin repeat domain, residues Asp1822-Ala2014, mutant R1895E; 15N-labelled for NMR; source: E. coli BL21(DE3), purified (HisTrap, TEV cleavage, S75 size exclusion)) DDSFPIAGIYDTTTDNKCSIKTAVAKNMLDPITGQKLLEAQAATGGIVDLLSRERYSVHKAMERGLIENTSTQELLNAQKAFTGIEDPVTKKRLSVGEAVQKGWMPRESVLPHLQVQHLTGGLIDPKRTGRIPIQQALLSGMISEELAQLLQDESSYEKDLTDPISKERLSYKEAMGRCRKDPLSGLLLLPAA")
"binds"
